B1: PPP2R2B (parent)
chain: PSNRSFFSEIISSISDVKFSHSGR

Variants of: B1
Test: protein stability index of a GFP-peptide fusion (GPS, HEK-293T) (PSI 1-6); higher = more stable;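 note: lentivirally expressed fusions sorted by FACS into six bins by GFP to DsRed ratio, PSI derived from sequencing read proportions per bin multiplied by bin number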
Conditions: c terminus: a fixed tail appended
Measured protein stability index of individual entries
readout kind: protein stability index

- variant notation: "E9W"
  measured value: 1.91
- variant notation: "S15Q"
  measured value: 2.31
- variant notation: "S8I"
  measured value: 2.84
- variant notation: "S8A"
  measured value: 1.91
- variant notation: "S15R"
  measured value: 2.25
- variant notation: "D16P"
  measured value: 2.56
- variant notation: "S22E"
  measured value: 2.37
- variant notation: "F19V"
  measured value: 2.5
- variant notation: "S15W"
  measured value: 2.34
- variant notation: "I11A"
  measured value: 3.34
- variant notation: "D16T"
  measured value: 2.28
- variant notation: "S8Q"
  measured value: 2.33
- variant notation: "S22V"
  measured value: 2.06
- variant notation: "V17R"
  measured value: 2.31
- variant notation: "S13G"
  measured value: 2.37
- variant notation: "S20M"
  measured value: 1.95
- variant notation: "S8F"
  measured value: 2.11
- variant notation: "S22R"
  measured value: 2.71
- variant notation: "S13T"
  measured value: 2.64
- variant notation: "F7I"
  measured value: 2.87
- variant notation: "F19T"
  measured value: 3.07
- variant notation: "S8N"
  measured value: 2.44
- variant notation: "F19Y"
  measured value: 2.57
- variant notation: "S22I"
  measured value: 2.11
- variant notation: "S8W"
  measured value: 1.98
- variant notation: "S12R"
  measured value: 2.31
- variant notation: "F7Y"
  measured value: 2.51
- variant notation: "S2W"
  measured value: 2.18
- variant notation: "R24E"
  measured value: 2.94
- variant notation: "S2P"
  measured value: 2.65
- variant notation: "S12E"
  measured value: 2.57
- variant notation: "I10S"
  measured value: 3.09
- variant notation: "S2A"
  measured value: 2.54
- variant notation: "R4Q"
  measured value: 2.66
- variant notation: "G23K"
  measured value: 2.49
- variant notation: "R24W"
  measured value: 1.98
- variant notation: "N3E"
  measured value: 2.03
- variant notation: "S22M"
  measured value: 2.27
- variant notation: "E9S"
  measured value: 2.26
- variant notation: "S13D"
  measured value: 2.58
- variant notation: "S5H"
  measured value: 2.91
- variant notation: "F6W"
  measured value: 2.32
